Hey, just so you know, these numbers are from ChEMBL document CHEMBL5150032.

procedure.summary: Cytotoxicity against human NCM460 cells assessed as inhibition of cell growth
Format: toxicity, cell-based
So I've got a bunch of compounds here, and I need their IC50 values.

Would you mind telling me what IC50 value was observed for `CCN(CCNC(=O)c1c(C)[nH]c(/C=C2\C(=O)Nc3ccc(F)cc32)c1C)CC(=O)N[C@H](C(=O)N1C[C@H](O)C[C@H]1C(=O)NCc1ccc(-c2scnc2C)cc1)C(C)(C)C` ?
> 100 µM

Would you mind telling me what IC50 value was observed for `Cc1ncsc1-c1ccc(CNC(=O)[C@@H]2C[C@@H](O)CN2C(=O)[C@@H](NC(=O)COCCOCCNC(=O)c2c(C)[nH]c(/C=C3\C(=O)Nc4ccc(F)cc43)c2C)C(C)(C)C)cc1` ?
> 100 µM
